Record set: pIC50 | Urokinase-type plasminogen activator (Homo sapiens, UniProt P00749) | literature, multiple sources.
pIC50: −log10 of the molar value.
experimentalReadout: pIC50

INSERT INTO results (smilesrecord, cmp, experimentalresult) VALUES
  ('N=C(N)NC(=O)c1cnc(N)c(Br)n1', '<', 3.00),
  ('N=C(N)NC(=O)c1nc(Cl)c(NCCC(=O)O)nc1N', '=', 3.99),
  ('CCCCCCCCNC(=O)[C@H](Cc1ccc(OCc2ccncc2)cc1)NC(=O)[C@H]1CC[C@H](CN)CC1', '=', 5.28),
  ('CCOC(=O)c1nn(C(=O)c2cccc(OC)c2)c2ccc([N+](=O)[O-])cc12', '=', 6.32),
  ('CCCCCCCCNC(=O)[C@H](Cc1ccc(OCc2ccc3ccccc3c2)cc1)NC(=O)[C@H]1CC[C@H](CN)CC1', '<', 4.00),
  ('Cc1cc(Oc2nc(O[C@@H](C(=O)O)C(C)(C)C)c(F)cc2F)cc(-c2cccc(CN)c2)c1', '=', 7.29),
  ('N=C(N)Nc1ccc(CCNc2cnc3ccccn23)cc1', '=', 4.71),
  ('Nc1nc(-c2ccccn2)nn1C(=O)c1cccc2ccccc12', '<', 5.30),
  ('NCCOc1c(Cl)cc(Nc2cnc3ccccn23)cc1Cl', '=', 3.30),
  ('CCOC(=O)c1nn(C(=O)c2cccc(C)c2)c2ccc(NC(C)=O)cc12', '=', 4.86),
  ('N=C(N)NC(=O)c1nc(Cl)c(NCCNCc2ccccc2)nc1N', '=', 4.55),
  ('N=C(N)c1ccc(CNC(=O)[C@H](CO)NC(=O)[C@@H](CO)NS(=O)(=O)Cc2ccccc2)cc1', '=', 7.70),
  ('Cn1c(CN2C(=O)CN(c3ccc(F)cc3)C2=O)nc2ccc(C(=O)N[C@H](C#N)CCCCN)cc21', '<', 3.70),
  ('N=C(N)NC(=O)c1nc(I)c(N)nc1N', '=', 5.70),
  ('CCCCCCCCNC(=O)[C@H](Cc1ccc(OCc2ccccc2C(=O)OC)cc1)NC(=O)[C@H]1CC[C@H](CN)CC1', '<', 3.70),
  ('C[C@@H](c1nc2ccc(C(=O)N[C@H](C#N)CCCCN)cc2n1C)N1C(=O)CN(c2ccc(F)cc2)C1=O', '<', 3.70),
  ('N=C(N)NC(=O)c1nc(Cl)c(NCCS(=O)(=O)O)nc1N', '<', 3.00),
  ('CCOC(=O)c1nn(C(=O)c2cccc(C)c2)c2ccc([N+](=O)[O-])cc12', '=', 5.82),
  ('N=C(NO)c1nc(Cl)c(NCC(=O)O)nc1N', '=', 3.64),
  ('Cc1cccc(Oc2nc(Oc3cccc(-c4cccc(CN)c4)c3)c(F)cc2F)c1C(=O)O', '=', 4.59),
  ('CCCCNC(=O)c1ccn2c(NCc3ccc(NC(=N)N)cc3)cnc2c1', '=', 7.01),
  ('CCCCCCCCNC(=O)[C@H](Cc1ccc(OCc2cccc3ccccc23)cc1)NC(=O)[C@H]1CC[C@H](CN)CC1', '<', 4.00),
  ('N=C(N)Nc1ccc(CCNc2c(-c3cccc(Cl)c3)nc3cnccn23)cc1', '=', 4.27),
  ('NCc1cccc(-c2cccc(Oc3nc(Oc4ccccc4CC(=O)O)c(F)cc3F)c2)c1', '=', 5.09),
  ('NC[C@H]1CC[C@H](Nc2cnc3ccccn23)CC1', '=', 3.30);
